// data source = ChEMBL document CHEMBL6153150

Target: Heat shock protein HSP90 (Homo sapiens, UniProt P07900+P08238)
Assay: Binding affinity to Hsp90 (unknown origin) assessed as dissociation constant incubated for 30 mins by fluorescence spectrophotometric analysis
Assay type: protein assay
observed.property: Kd (nM)
Please state the figure in nM; there is no need to write the unit.

Examples with answers:
CC(C)c1cc(C(=O)N2C[C@@H](c3ccccc3)C[C@@H]2C(=O)NC2CC2)c(O)cc1O: 1213
O=C(NCc1ccccn1)[C@H]1C[C@H](c2ccccc2)CN1C(=O)c1cc(C2CC2)c(O)cc1O: 57
CC(C)c1cc(C(=O)N2Cc3ccc(CN4CCN(C)CC4)cc3C2)c(O)cc1O: 27
CC(C)CCNC(=O)[C@H]1C[C@H](c2ccccc2)CN1C(=O)c1cc(C(C)C)c(O)cc1O: 645
CC(C)OCCCNC(=O)[C@H]1C[C@H](c2ccccc2)CN1C(=O)c1cc(C(C)C)c(O)cc1O: 202

Q: Recorded Kd of CC(C)c1cc(C(=O)N2C[C@@H](c3ccccc3)C[C@@H]2C(=O)NCc2ccc3ccccc3n2)c(O)cc1O , please.
A: 432

Q: How about CCCN(CCC)C(=O)[C@H]1C[C@H](c2ccccc2)CN1C(=O)c1cc(C(C)C)c(O)cc1O ?
A: 2516

Q: How about CC(C)c1cc(C(=O)N2C[C@@H](c3ccccc3)C[C@@H]2C(=O)N2CCN(C(C)C)CC2)c(O)cc1O ?
A: 1021

Q: How about CCNC(=O)[C@H]1C[C@H](c2ccccc2)CN1C(=O)c1cc(C(C)C)c(O)cc1O ?
A: 1132
